Test system: DU-145 prostate
assay_text: NCI-60 one-dose screen, 48 h (100 = growth as untreated, 0 = no growth, -100 = all killed)
cond: 10 µM unless noted
This is part of a sample that, as a whole, favours compounds with a hit. Of some 83,000 tested, about 20% had one in any assay.
Exercise: for every item that follows, state its recorded growth.
Numbers only, in %.

1) CC(C)[O-].CC(C)[O-].CN(CCN(C)Cc1cc(F)cc(F)c1[O-])Cc1cc(F)cc(F)c1[O-].[Ti+4] = 17.7
2) C[n+]1c2ccccc2c(Nc2ccc(N3CCCCC3)cc2)c2[nH]c3ccccc3c21 = -95.7
3) N#Cc1cnc2cc(OC[C@H](O)CO)c(NC(=O)CC3CSSC3)cc2c1Nc1ccc(OCc2cccc(F)c2)c(Cl)c1 = -93.5
4) COc1ccc2nc3cc(Cl)ccc3c(Nc3cc(C(C)C)c(O)cc3C)c2c1 = 52.3
5) Cc1c(C(N)=O)sc2c1C(=O)N(Cc1ccccc1)C1=NN=C(c3ccc(Cl)cc3)CN12 = 46.1
6) Nc1nonc1-c1nc2ccccc2n1CC(=O)Nc1ccc2c(c1)COC2=O = 108

Give me growth for each of these molecules, listed below.
1. CC(=O)NCCSC(=O)C(=O)SCCNC(C)=O
2. CCn1c2ccccc2c2ccc(C(C)=O)cc21
3. COc1ccc2c(c1)C(=O)c1c-2c(OCCCN(C)C)nc2cc(Br)ccc12
4. CN(C(=O)c1ccccc1)N(C)C(=O)c1ccccc1
5. COc1ccc(C2CC(c3ccc(OC)c(OC)c3)=NN2C(=O)c2cc(OC)c(OC)c(OC)c2)c(OC)c1 (configuration not stated)

1: 116; 2: 93.5; 3: 78.5; 4: 121; 5: 101

---

Tested on: SNB-19 CNS
assay_text: NCI-60 one-dose screen, 48 h (100 = growth as untreated, 0 = no growth, -100 = all killed)
cond: 10 µM unless noted
Method: Growth inhibition of the SNB-19 human tumor cell line is measured as a screen for anti-cancer activity. Cells are grown in 96 well plates and exposed to the test compound for 48 hours. Compounds are tested at a single concentration, which is 10^-5 M for most compounds. The reported endpoint is percent growth (GI% or GIPRCNT), where numbers from 0 - 100% represent growth inhibition, and numbers from -100% - 0 represent cell death. For example, a value of 40 represents 60% growth inhibition. […]
The panel holds about 83,000 compounds, 20% with a hit somewhere; the sample as a whole holds those more often.
observation_type: growth (%)
Give bare numbers, in %.

1. COc1cc([C@@H]2c3cc4c(cc3C(O[C@@H]3O[C@@H]5CO[C@@H](c6cccs6)OC5[C@H](O)[C@H]3O)C3COC(=O)[C@@H]32)OCO4)cc(OC)c1O (stereo not given in full) = 1.98
2. CCC(=O)Nc1ccccc1C#C/C=C\C#Cc1ccccc1C(F)(F)F = 66.4
3. CCOC(=O)/C(=C/c1ccccc1)C(=O)c1ccccc1 = 85.4
4. C[N+]1(CCc2ccccc2)CCC(CCC2CC[N+](C)(CCc3ccccc3)CC2)CC1 (stereo not given) = 98.1

The recorded growth for entry CC[N+](CC)(CCOCCOCC[N+](CC)(CC)Cc1ccc([N+](=O)[O-])cc1)Cc1ccc([N+](=O)[O-])cc1 equals 101

---

Tested on: IGROV1 ovarian
assay_text: NCI-60 one-dose screen, 48 h
cond: 10 µM unless noted
Procedure: Growth inhibition of the IGROV1 human tumor cell line is measured as a screen for anti-cancer activity. Cells are grown in 96 well plates and exposed to the test compound for 48 hours. Compounds are tested at a single concentration, which is 10^-5 M for most compounds. The reported endpoint is percent growth (GI% or GIPRCNT), where numbers from 0 - 100% represent growth inhibition, and numbers from -100% - 0 represent cell death. For example, a value of 40 represents 60% growth inhibition. […]
This is part of a sample that, as a whole, favours compounds with a hit. Of some 83,000 tested, about 20% had one in any assay. Calls of active or inactive are those of the source. Rule for the calls: active = growth percent below 10; inactive = the rest.
API: response.call in 1 (yes) for active, 0 (no) for inactive

Observe how each entry below is paired with its result.
1) COc1ccc2nc3cc(Cl)ccc3c(N3CCN(c4ccnc(Nc5ccc(F)cc5)n4)CC3)c2c1 = 0 (no)
2) O=C1CC(C(F)(F)F)=NN1C(=O)c1nn(-c2ccc(Cl)cc2)cc1O = 0 (no)
3) COc1ccc(-n2nnc(C(=O)O)c2-c2cc(OC)c(OC)c(OC)c2)cc1 = 0 (no)
4) CC(c1cc(Cl)ccc1O)c1cc(Cl)ccc1O = 1 (yes)
5) CCCC[N+](CCCC)=c1ccc2nc3c(C)cc(N(CC)CC)cc3sc-2c1 = 0 (no)

What classification did CCCCCCCCSc1ncnc2c1ncn2CO end up with in this test?
0 (no)
